All values here come from the supplement of paper PMC11417369.

Recorded gcPBM binding intensity (ln), one value per entry.
- System: PfAP2-HC AP2 domain (GST-tagged)
- testMethodNotes: gcPBM binding intensity (ln(normalized median fluorescence intensity)); higher = stronger DNA binding
The full ranking holds about 25,000 sequences; the median of “ln(normalized median fluorescence intensity)” is about 9.7, and the highest 2% start at about 11. Many of the other results were omitted from the sample, so the highest values are more common in it than they were.
endpoint: gcPBM binding intensity (ln)

>  <polymerSequence>
TATAGCAAAAAATTTACACACATGTTTTTTCTATAC [CACACA_site325]

>  <studyTarget>
PfAP2-HC AP2 domain (GST-tagged)

>  <measuredResult>
9.9

$$$$
>  <polymerSequence>
CAATATATTTGATTTACACACTTACAATGTATTTAA [CACACA_site5632]

>  <studyTarget>
PfAP2-HC AP2 domain (GST-tagged)

>  <measuredResult>
9.79

$$$$
>  <polymerSequence>
TTATATATTTTTAGGTGTACTTTTTTTTTTTTTTTT [XGTACX_site8164]

>  <studyTarget>
PfAP2-HC AP2 domain (GST-tagged)

>  <measuredResult>
9.54

$$$$
>  <polymerSequence>
TTAATTACATGTAATTGTACTTAATTATAAGACATT [XGTACX_site464]

>  <studyTarget>
PfAP2-HC AP2 domain (GST-tagged)

>  <measuredResult>
9.52

$$$$
>  <polymerSequence>
AAAAAATTAAAAATACGTACATATATACATATATAT [XGTACX_site4621]

>  <studyTarget>
PfAP2-HC AP2 domain (GST-tagged)

>  <measuredResult>
9.71

$$$$
>  <polymerSequence>
ATTACTAAAAAATATAAACACACATATATTTTACAT [CACACA_site8633]

>  <studyTarget>
PfAP2-HC AP2 domain (GST-tagged)

>  <measuredResult>
9.88

$$$$
>  <polymerSequence>
TAAAGAGTCATGTGGTGTACCTGCTTCACCACATAT [XGTACX_site1288]

>  <studyTarget>
PfAP2-HC AP2 domain (GST-tagged)

>  <measuredResult>
9.4

$$$$
>  <polymerSequence>
TAAAGAAAAAGAGAATGTACATGAGAAAAGTATACT [XGTACX_site7472]

>  <studyTarget>
PfAP2-HC AP2 domain (GST-tagged)

>  <measuredResult>
9.79

$$$$
>  <polymerSequence>
AACTTTATTCCTAATTGTACACATATATATATATAT [XGTACX_site6823]

>  <studyTarget>
PfAP2-HC AP2 domain (GST-tagged)

>  <measuredResult>
10

$$$$
>  <polymerSequence>
TACAATACCGTACAGGTGCAACTAGCCAAAAAAAAG

>  <studyTarget>
PfAP2-HC AP2 domain (GST-tagged)

>  <measuredResult>
9.75

$$$$

----------
Recorded gcPBM binding intensity (ln), one value per entry.
- Tested on: PfAP2-HC AP2 domain (GST-tagged)
- testMethodNotes: gcPBM binding intensity (ln(normalized median fluorescence intensity)); higher = stronger DNA binding
In all, about 25,000 sequences were measured (“ln(normalized median fluorescence intensity)”: median about 9.7, highest 2% from about 11 on). This excerpt belongs to a sample that is enriched for the highest values.

>  <polymerSequence>
AAATACCTTATATATACACACTATGTTTTTCTTTTT [CACACA_site4792]

>  <studyTarget>
PfAP2-HC AP2 domain (GST-tagged)

>  <gcPBM binding intensity (ln)>
9.97

$$$$
>  <polymerSequence>
TATATATATATATACACACACACACCCCAAAGCGTA [CACACA_site64]

>  <studyTarget>
PfAP2-HC AP2 domain (GST-tagged)

>  <gcPBM binding intensity (ln)>
11.1

$$$$
>  <polymerSequence>
TAAATATATAAATACACACACACCAAAGCAATAGAT [CACACA_site5605]

>  <studyTarget>
PfAP2-HC AP2 domain (GST-tagged)

>  <gcPBM binding intensity (ln)>
10.5

$$$$
>  <polymerSequence>
AAAGGTAAATGTAAATAAATAAATAATAAATATATA [GTGCAC_negctrl_site681]

>  <studyTarget>
PfAP2-HC AP2 domain (GST-tagged)

>  <gcPBM binding intensity (ln)>
9.77

$$$$
>  <polymerSequence>
TATAAATATAGACACACACACACCAAAGCGTAGCGC [CACACA_site6179]

>  <studyTarget>
PfAP2-HC AP2 domain (GST-tagged)

>  <gcPBM binding intensity (ln)>
10.3

$$$$
>  <polymerSequence>
TTTTTTTAAAGAATTATCATAAAATGATTGCATCAT [XGTACX_negctrl_site141]

>  <studyTarget>
PfAP2-HC AP2 domain (GST-tagged)

>  <gcPBM binding intensity (ln)>
9.34

$$$$
>  <polymerSequence>
TATATATATATATATACACACACACCCACCAAAGCG [CACACA_site7904]

>  <studyTarget>
PfAP2-HC AP2 domain (GST-tagged)

>  <gcPBM binding intensity (ln)>
10.1

$$$$
>  <polymerSequence>
CGAAAGAAAAAAAGCACACACAGTTTTGAGCAATGA [CACACA_site2109]

>  <studyTarget>
PfAP2-HC AP2 domain (GST-tagged)

>  <gcPBM binding intensity (ln)>
10.1

$$$$
>  <polymerSequence>
AAGTATTATATATTTTGTACATATATAAAACCACAA [XGTACX_site5508]

>  <studyTarget>
PfAP2-HC AP2 domain (GST-tagged)

>  <gcPBM binding intensity (ln)>
9.61

$$$$

----------
Recorded gcPBM binding intensity (ln), one value per entry.
- Test system: PfAP2-HC AP2 domain (GST-tagged)
- testMethodNotes: gcPBM binding intensity (ln(normalized median fluorescence intensity)); higher = stronger DNA binding
In all, about 25,000 sequences were measured (“ln(normalized median fluorescence intensity)”: median about 9.7, highest 2% from about 11 on). What follows is part of a selection rich in the highest values, with near analogues and random picks from the rest.
endpoint: gcPBM binding intensity (ln)

>  <polymerSequence>
TTTATTAGTAATTATACACACATATAAAATGAATAA [CACACA_site6754]

>  <endpoint>
gcPBM binding intensity (ln)

>  <measuredResult>
9.67

$$$$
>  <polymerSequence>
TATATACACAAACACACACACACATACACCCACATA [CACACA_site8504]

>  <endpoint>
gcPBM binding intensity (ln)

>  <measuredResult>
10.8

$$$$
>  <polymerSequence>
AATACTAAAACCCATACACACACATATATATAGTAC [CACACA_site9041]

>  <endpoint>
gcPBM binding intensity (ln)

>  <measuredResult>
11

$$$$
>  <polymerSequence>
TTTTTTTTTTTTTTTGCACACACATTGAATTATTAT [CACACA_site198]

>  <endpoint>
gcPBM binding intensity (ln)

>  <measuredResult>
9.96

$$$$
>  <polymerSequence>
ATATATATATATATGTGTACTAATAAGGTTAAATAA [XGTACX_site1535]

>  <endpoint>
gcPBM binding intensity (ln)

>  <measuredResult>
9.85

$$$$
>  <polymerSequence>
TTTTAATTAAAACACACACACACATATATATATATA [CACACA_site2291]

>  <endpoint>
gcPBM binding intensity (ln)

>  <measuredResult>
10.6

$$$$
>  <polymerSequence>
TATAAGCAAAAACACACACACATATATATATATATA [CACACA_site3804]

>  <endpoint>
gcPBM binding intensity (ln)

>  <measuredResult>
10.2

$$$$
>  <polymerSequence>
TTTTAATGAAAACACACACACACATATATATATATA [CACACA_site5295]

>  <endpoint>
gcPBM binding intensity (ln)

>  <measuredResult>
11.1

$$$$
>  <polymerSequence>
TTTTATTATTTTTGTTGTACAGTATACTGTATGATT [XGTACX_site5359]

>  <endpoint>
gcPBM binding intensity (ln)

>  <measuredResult>
9.69

$$$$
>  <polymerSequence>
ATATATACAAGTATTTTTTTTTCAAACATTATTTTT [CACACA_negctrl_site1808]

>  <endpoint>
gcPBM binding intensity (ln)

>  <measuredResult>
9.68

$$$$
>  <polymerSequence>
AAAAAACAAAAACACACACACACATATATATATATA [CACACA_site3654]

>  <endpoint>
gcPBM binding intensity (ln)

>  <measuredResult>
10.9

$$$$
>  <polymerSequence>
AAAAAAAAAAAAAAAACACACATATATATATATATA [CACACA_site2436]

>  <endpoint>
gcPBM binding intensity (ln)

>  <measuredResult>
10.4

$$$$
>  <polymerSequence>
ATATTTGTAATTATTAAACACACACTAATTATATAT [CACACA_site8803]

>  <endpoint>
gcPBM binding intensity (ln)

>  <measuredResult>
9.9

$$$$
>  <polymerSequence>
AATATCTAAATAAAGTGTACTTACCTTATTAATTAT [XGTACX_site2276]

>  <endpoint>
gcPBM binding intensity (ln)

>  <measuredResult>
9.64

$$$$
>  <polymerSequence>
TGTACAAATATGTTGAAAATAAAATTTCAATATATT [XGTACX_negctrl_site13]

>  <endpoint>
gcPBM binding intensity (ln)

>  <measuredResult>
9.32

$$$$
>  <polymerSequence>
CCTTTAAGCAAAAACACACACACATATATATATATA [CACACA_site348]

>  <endpoint>
gcPBM binding intensity (ln)

>  <measuredResult>
10

$$$$
>  <polymerSequence>
AACAAAAATGAAAAAACACACATAACATATATAAAT [CACACA_site740]

>  <endpoint>
gcPBM binding intensity (ln)

>  <measuredResult>
10.1

$$$$
>  <polymerSequence>
ATAAAATGAACAAACACACACACATATATATATATA [CACACA_site2402]

>  <endpoint>
gcPBM binding intensity (ln)

>  <measuredResult>
10.9

$$$$
>  <polymerSequence>
TAAGACTATTAAAAAATTGAGTACATGAACTGTTCA [GTGCAC_negctrl_site670]

>  <endpoint>
gcPBM binding intensity (ln)

>  <measuredResult>
9.41

$$$$
